Ref: PubChem BioAssay (NCI)

Overview of reported GI50 across a group of compounds:
test system: DU-145 prostate
READOUT: GI50

{"ITEM_SMILES": "O=C1/C(=C\\C(Cl)=C/c2ccc([N+](=O)[O-])cc2)SC(=S)N1CCc1ccc(O)cc1", "READOUT": "GI50", "RESULT": "471 nM"}
{"ITEM_SMILES": "S=c1nc2[nH]ncc2c(N/N=C/c2ccccc2)[nH]1", "READOUT": "GI50", "RESULT": "> 100000 nM"}
{"ITEM_SMILES": "C=C1C(=O)O[C@H]2[C@H]1CC/C(Cn1cc(Cn3ccc4ccccc43)nn1)=C\\CC[C@@]1(C)O[C@@H]21", "READOUT": "GI50", "RESULT": "1640 nM"}
{"ITEM_SMILES": "COc1cc(C#N)cc(OC)c1OCCOCCOc1c(OC)cc(C#N)cc1OC", "READOUT": "GI50", "RESULT": "> 100000 nM"}
{"ITEM_SMILES": "COc1ccc(/C=C2\\CN(Cc3cn(CCCNc4ccnc5cc(Cl)ccc45)nn3)C/C(=C\\c3ccc(OC)c(OC)c3)C2=O)cc1OC", "READOUT": "GI50", "RESULT": "1100 nM"}

###

tested on: A498 renal; assay: NCI tumour cell line growth inhibition, 48 h
READOUT: TGI

{"COMPOUND": "OCCOCn1cc(Cn2ncc3c(SCc4ccccc4)ncnc32)nn1", "RESULT": "> 100 µM"}
{"COMPOUND": "Cc1ccc([N+](=O)[O-])cc1NC(=O)C(=O)Cc1occc(=O)c1O", "RESULT": "> 100 µM"}
{"COMPOUND": "Clc1ccc(Nc2nc(Cl)c3[nH]cnc3n2)cc1Cl", "RESULT": "34.9 µM"}
{"COMPOUND": "[O-][N+](CCO)(CCO)c1ncnc2nc[nH]c12", "RESULT": "> 100 µM"}
{"COMPOUND": "NCC#CCNCCCN1CC1", "RESULT": "> 100 µM"}
{"COMPOUND": "C/C(=N\\NC(=O)c1cccnc1)c1cccc(/C(C)=N/NC(=O)c2cccnc2)n1", "RESULT": "68.1 µM"}
{"COMPOUND": "N/C(=N\\N=C\\c1cccs1)NO", "RESULT": "> 100 µM"}
{"COMPOUND": "COc1ccc(/C=C(\\C#N)c2nc(N)nc(N3N=C(C)CC3(C)C)n2)c(O)c1", "RESULT": "69.7 µM"}
{"COMPOUND": "Nc1ccc2c(c1)C(=O)N(O)C2=O", "RESULT": "> 100 µM"}
{"COMPOUND": "O=C1C(=O)N(C(=O)c2ccc(Cl)c(Cl)c2)c2ccc(Cl)cc21", "RESULT": "63.8 µM"}
{"COMPOUND": "COc1cc(/C=C2\\CN(C)C/C(=C\\c3cc(OC)c(OC)c(OC)c3)C2=O)cc(OC)c1OC", "RESULT": "1.59 µM"}
{"COMPOUND": "CCCCOC(=O)C1CN2C=CC=NC2=NC1(C(F)(F)F)C(F)(F)F (configuration not stated)", "RESULT": "> 100 µM"}
{"COMPOUND": "N#CC1=C(S)N(C2OC(CO)C(O)C(O)C2O)C(c2ccccc2)=CC1c1ccccc1 (configuration not stated)", "RESULT": "> 100 µM"}
{"COMPOUND": "Cc1cc(O)c(C(C)C)cc1CN1CCCCC1", "RESULT": "> 100 µM"}
{"COMPOUND": "O=C1C(=O)c2ccccc2-c2ccccc21", "RESULT": "3.32 µM"}
{"COMPOUND": "COc1ccc(-c2c(C#N)c(-c3ccc(C)cc3)n(NS(=O)(=O)c3ccccc3)c(=O)c2C#N)cc1", "RESULT": "> 100 µM"}
{"COMPOUND": "CN=C1Nc2ccc(Cl)cc2C(c2ccccc2)=NN1C", "RESULT": "> 100 µM"}
{"COMPOUND": "CCCc1cc2cc(-n3nc(C)c4c3CC(C)(C)CC4=O)cc(NC3CCC(O)CC3)c2c(=O)[nH]1 (configuration not stated)", "RESULT": "> 100 µM"}
{"COMPOUND": "NC(CNO)C(=O)O (configuration not stated)", "RESULT": "> 100 µM"}
{"COMPOUND": "CCC(C)C1NC(=O)C2CCCN2C(=O)C(CC2CO2)OC(=O)CCNC(=O)C(C)N(C)C(=O)C(C(C)C)N(C)C1=O (configuration not stated)", "RESULT": "> 100 µM"}
{"COMPOUND": "O=C1/C(=C\\C(Cl)=C/c2ccc([N+](=O)[O-])cc2)SC(=S)N1CCc1ccc(O)cc1", "RESULT": "3.07 µM"}
{"COMPOUND": "Cc1cn(C2CC(O)C(Cn3cc(Cn4ncc(=O)[nH]c4=O)nn3)O2)c(=O)[nH]c1=O (configuration not stated)", "RESULT": "> 100 µM"}

###

tested on: U251 CNS; experiment: NCI tumour cell line growth inhibition, 48 h

{"COMPOUND": "O=C1c2cc3c(cc2-c2c1c1ccc(Cl)cc1c(=O)n2C[C@H](O)[C@@H](O)[C@H](O)CO)OCO3", "TGI": "0.0505 µM"}
{"COMPOUND": "COc1cc(C#N)cc(OC)c1OCCOCCOc1c(OC)cc(C#N)cc1OC", "TGI": "> 100 µM"}
{"COMPOUND": "Nc1cc2c3c(cccc3c1)C(=O)N(c1ccc(OCCN3CCCCC3)cc1)C2=O", "TGI": "61.6 µM"}
{"COMPOUND": "C[C@@H](CO)OCOCc1ccccc1", "TGI": "> 100 µM"}
{"COMPOUND": "COc1cc(/C=C/C(=O)c2ccc(Nc3ncnc4ccccc34)cc2)cc(OC)c1", "TGI": "6.75 µM"}
{"COMPOUND": "CCOC(=O)c1sc2nc(SC)nc3c2c1N=CN3c1ccccc1Cl", "TGI": "> 100 µM"}
{"COMPOUND": "N/C(=N\\N=C\\c1cccs1)NO", "TGI": "> 100 µM"}
{"COMPOUND": "Nc1ncnc2c1nc(-c1ccccc1)n2C1OC(CO)C(O)C1O (stereo not given)", "TGI": "> 100 µM"}
{"COMPOUND": "CCOc1ccccc1N=Nc1c(-c2ccccc2)nn(C(=O)CC(=O)Nc2cccc(Cl)c2)c1-c1ccccc1", "TGI": "> 100 µM"}
{"COMPOUND": "CC(C)[Si](OC1=C(C(=O)Nc2ccccc2Cl)CCCCC1)(C(C)C)C(C)C", "TGI": "> 100 µM"}
{"COMPOUND": "CSC(=NCCCCN=C(NS(=O)(=O)c1ccc(Cl)cc1)SC)NS(=O)(=O)c1ccc(Cl)cc1", "TGI": "> 100 µM"}
{"COMPOUND": "O=C(C#CP(=O)(O)c1ccccc1)c1ccccc1", "TGI": "> 100 µM"}
{"COMPOUND": "CCOC(=O)C(Cc1c2ccccc2cc2ccccc12)(NC(C)=O)C(=O)OCC", "TGI": "> 100 µM"}
{"COMPOUND": "CC1(C)CCC2(C(=O)OC3OC(CO)C(O)C(O)C3O)CCC3(C)C(=CCC4C5(C)CCC(OC6OC(CO)C(O)C(O)C6O)C(C)(C)C5CCC43C)C2C1 (stereo not given)", "TGI": "10.4 µM"}
{"COMPOUND": "COC(=O)C(=O)C(C(=O)C(=O)Nc1ccc(Cl)cc1C)c1nc2ccc(C(=O)c3ccccc3)cc2[nH]c1=O (stereo not given)", "TGI": "> 100 µM"}

###

system: SW-620 colon; experiment: NCI tumour cell line growth inhibition, 48 h
*1 amine or outer side, *2 acyl side, *3 side chain or, on linkers, in order; H or OH if unused. Where a SMILES comes first, the peptide text is derived from it. Bridges are numbered along the chain shown (N, C = ends). Roman numbers before positions name the chains, in order. [ ]: non-standard residue; d: D form. Actinocin(9to1) = Cc1c2oc3c(C)ccc(C(=O)[*:1])c3nc-2c(C(=O)[*:2])c(N)c1=O; X48 = O=C1CC(C(=O)[*:2])N([*:1])C1; NMeV = CN[CH](C(=O)O)C(C)C; Sar = CNCC(=O)O
Overview of reported TGI across a group of compounds:

{"COMPOUND": "N#CC1=C(S)N(C2OC(CO)C(O)C(O)C2O)C(c2ccccc2)=CC1c1ccccc1 (configuration not stated)", "TGI": "> 100 µM"}
{"COMPOUND": "COc1ccc(N(CC(=O)NCCC[Te]c2ccccc2)C(=O)CCSC2=C(C)C(=O)c3ccccc3C2=O)cc1", "TGI": "8.03 µM"}
{"COMPOUND": "Cc1c(C(=O)CC(=O)C(=O)Nc2ccc(Cl)c(Cl)c2)[n+](=O)c2ccccc2n1[O-]", "TGI": "71.8 µM"}
{"COMPOUND": "COc1ccc(N=c2ssc(C(=S)Nc3ccc(OC)cc3)c2S)cc1", "TGI": "> 100 µM"}
{"COMPOUND": "Nc1ccc2c(c1)C(=O)N(O)C2=O", "TGI": "> 100 µM"}
{"COMPOUND": "CN(C)CCn1c(=O)c2ccc3c4c(nn3CCN(C)C)c3cc(N)ccc3n(c1=O)c24", "TGI": "1.87 µM"}
{"COMPOUND": "C=C[C@]1(C)CCC2=C(CCC3C2(C)CCC[C@]3(C)CO)C1 (some centres not stated)", "TGI": "> 100 µM"}
{"COMPOUND": "N[C@H]1CCN(c2c(F)cc3c(=O)c(C(=O)O)cn4c3c2Oc2cc3c(ccc5ccccc53)cc2-4)C1", "TGI": "> 100 µM"}
{"COMPOUND": "COc1ccc(NC(=O)C(=O)C2CNC(=O)NC2=O)c(OC)c1 (configuration not stated)", "TGI": "> 100 µM"}
{"COMPOUND": "CC1(C)C(O)C[C@]23CCC[C@](C)(C[C@@H](O)C12)C3 (some centres not stated)", "TGI": "> 100 µM"}
{"COMPOUND": "O=C1OCc2c1cc(F)cc2[N+](=O)[O-]", "TGI": "> 100 µM"}
{"COMPOUND": "Cc1cccc(N=Nc2c(C)nn(C(=O)CC(=O)Nc3ccccc3)c2C)c1", "TGI": "> 100 µM"}
{"COMPOUND": "Nc1ccccc1N/C(=C\\C(=O)C(Cl)(Cl)Cl)c1ccccc1", "TGI": "> 100 µM"}
{"COMPOUND": "COC(=O)C(C)NP(=O)(OCc1ccc(Cn2cnc3c(=O)[nH]c(N)nc32)cc1)Oc1ccccc1 (configuration not stated)", "TGI": "> 100 µM"}
{"COMPOUND": "O=C(/C=C\\c1cccc2ccccc12)c1cccs1", "TGI": "2.99 µM"}
{"COMPOUND": "CCOC(=O)C1CCn2c(nc3c2c(=O)n(C)c(=O)n3C)S1 (configuration not stated)", "TGI": "> 100 µM"}
{"COMPOUND": "Cc1c2oc3c(C)ccc(C(=O)NC4C(=O)NC(C(C)C)C(=O)N5CC(=O)CC5C(=O)N(C)CC(=O)N(C)C(C(C)C)C(=O)OC4C)c3nc-2c(C(=O)NC2C(=O)NC(C(C)C)C(=O)N3CC(=O)CC3C(=O)N(C)CC(=O)N(C)C(C(C)C)C(=O)OC2C)c(N)c1=O (configuration not stated) (I: TV[X48][Sar][NMeV] / II: TV[X48][Sar][NMeV]; ester I:1-I:C, II:1-II:C; linker I:N-II:N via Actinocin(9to1); configuration not given here)", "TGI": "> 1 µM"}
{"COMPOUND": "COC(=O)C(=O)C(C(=O)C(=O)Nc1ccc(Cl)cc1C)c1nc2ccc(C(=O)c3ccccc3)cc2[nH]c1=O (configuration not stated)", "TGI": "> 100 µM"}
{"COMPOUND": "COc1ccc(/C(C)=C(\\c2ccc(Cl)cc2)c2ccc(OCCN3CCCC3)cc2)cc1F", "TGI": "5.68 µM"}
{"COMPOUND": "O=C(O)C(CSC(c1ccccc1)(c1ccccc1)c1ccccc1)N=Cc1cccs1 (configuration not stated)", "TGI": "> 100 µM"}
{"COMPOUND": "COc1ccc2c(c1)CCc1c(-c3noc4c3CCc3cc(OC)ccc3-4)noc1-2", "TGI": "> 100 µM"}
{"COMPOUND": "O=C1C(=O)N(C(=O)c2ccc(Cl)c(Cl)c2)c2ccc(Cl)cc21", "TGI": "> 100 µM"}
{"COMPOUND": "OCC1NCC(O)C(O)C1O (configuration not stated)", "TGI": "> 100 µM"}
{"COMPOUND": "CCOC(=O)c1c(-c2ccccc2)[n+](=O)c2ccc(Cl)cc2n1[O-]", "TGI": "17.7 µM"}
{"COMPOUND": "NCC#CCNCCCN1CC1", "TGI": "> 100 µM"}
{"COMPOUND": "CC(=O)CCNc1ccc(-c2cc(-c3ccc(N(C)C)cc3)nc3ccc4ccccc4c23)cc1", "TGI": "> 100 µM"}
{"COMPOUND": "O=S1(=O)OC(c2ccc(O)cc2)(c2ccc(O)cc2)c2ccccc21", "TGI": "> 100 µM"}
{"COMPOUND": "CCN(CC)CCOc1ccc(/C(=C(\\C)Cc2ccc(OC)cc2)c2ccc(OC(=O)NCc3ccccc3)cc2)cc1", "TGI": "3.59 µM"}
{"COMPOUND": "COc1ccc(-c2nn(-c3cccc(NC(=O)Nc4ccc(Cl)c(C(F)(F)F)c4)c3)cc2-c2ccncc2)cc1Cl", "TGI": "63.9 µM"}
{"COMPOUND": "O=[N+]([O-])c1cc(CCl)ccc1CCl", "TGI": "4.54 µM"}
{"COMPOUND": "Nc1ncnc2c1ncn2C1C=CC(CP(=O)(O)O)C1 (configuration not stated)", "TGI": "> 100 µM"}
{"COMPOUND": "CC(NC(=O)C(N)Cc1ccc(O)cn1)C(=O)O (configuration not stated)", "TGI": "> 100 µM"}
{"COMPOUND": "NC(=O)N/N=C(\\C(=O)C(=O)Nc1ccc(Cl)c(C(F)(F)F)c1)c1nc2ccc(C(=O)c3ccccc3)cc2[nH]c1=O", "TGI": "> 100 µM"}
{"COMPOUND": "CCOC(=O)c1sc2nc(SC)nc3c2c1N=CN3c1ccccc1Cl", "TGI": "> 100 µM"}
{"COMPOUND": "C#CCN=C(N/N=C/c1ccc([N+](=O)[O-])o1)NS(=O)(=O)c1cc(C)c(Cl)cc1SCC(N)=O", "TGI": "17.1 µM"}
{"COMPOUND": "C[C@]12CCC(=O)C=C1CC[C@@H]1[C@@H]2[C@@H](O)C[C@@]2(C)[C@H]1CC[C@]2(O)C(=O)CO", "TGI": "> 100 µM"}
{"COMPOUND": "O=C(NCc1ccccc1)c1cc2cc(O)c(O)cc2cn1", "TGI": "> 100 µM"}
